- Test Target: T1, SARS-CoV-2 Spike Glycoprotein S1 (subunit 1) (SARS-CoV-2, UniProt P0DTC2 16-685)
- T1 construct: also called S1 Monomer; SARS-CoV-2 S1
- Assay Text: column DC/S1 (format not explained)
Items are presented alongside their recorded Kd.
Quantity: Kd (µM)

* 1-4 (antibody, V domains shown) VH: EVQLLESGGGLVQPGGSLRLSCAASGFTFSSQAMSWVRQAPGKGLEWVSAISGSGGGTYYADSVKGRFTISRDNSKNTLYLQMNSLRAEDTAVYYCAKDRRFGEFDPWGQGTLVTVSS VL: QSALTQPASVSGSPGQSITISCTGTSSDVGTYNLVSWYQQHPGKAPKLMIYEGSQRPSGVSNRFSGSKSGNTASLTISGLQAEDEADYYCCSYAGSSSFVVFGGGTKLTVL | 0.659
* 1-31 (antibody, V domains shown) VH: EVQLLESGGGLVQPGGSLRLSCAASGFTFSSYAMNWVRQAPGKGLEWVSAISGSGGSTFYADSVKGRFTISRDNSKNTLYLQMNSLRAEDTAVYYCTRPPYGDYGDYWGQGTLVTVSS VL: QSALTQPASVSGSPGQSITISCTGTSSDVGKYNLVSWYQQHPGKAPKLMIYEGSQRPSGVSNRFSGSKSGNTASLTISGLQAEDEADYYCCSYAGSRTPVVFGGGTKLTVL | 0.0144
* 1-30 (antibody, V domains shown) VH: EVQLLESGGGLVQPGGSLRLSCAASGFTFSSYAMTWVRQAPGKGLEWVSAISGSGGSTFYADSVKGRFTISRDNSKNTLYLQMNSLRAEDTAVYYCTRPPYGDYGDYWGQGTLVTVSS VL: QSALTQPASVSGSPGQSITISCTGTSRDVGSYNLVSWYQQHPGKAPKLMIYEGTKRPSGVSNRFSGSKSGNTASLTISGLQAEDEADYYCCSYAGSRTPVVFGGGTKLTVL | 0.0047
* 1-17 (antibody, V domains shown) VH: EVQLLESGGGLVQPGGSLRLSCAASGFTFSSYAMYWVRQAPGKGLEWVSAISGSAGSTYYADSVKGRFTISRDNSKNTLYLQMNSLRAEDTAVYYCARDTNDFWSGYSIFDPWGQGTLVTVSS VL: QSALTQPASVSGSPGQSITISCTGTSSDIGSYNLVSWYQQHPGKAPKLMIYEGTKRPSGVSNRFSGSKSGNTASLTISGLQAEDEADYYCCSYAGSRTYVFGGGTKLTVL | 6.65
* 1-3 (antibody, V domains shown) VH: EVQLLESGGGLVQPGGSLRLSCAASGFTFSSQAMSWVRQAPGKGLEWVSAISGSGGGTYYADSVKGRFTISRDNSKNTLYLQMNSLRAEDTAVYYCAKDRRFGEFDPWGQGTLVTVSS VL: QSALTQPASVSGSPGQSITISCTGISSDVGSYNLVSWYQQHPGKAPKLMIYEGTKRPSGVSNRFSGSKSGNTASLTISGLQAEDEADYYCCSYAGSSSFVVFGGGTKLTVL | 0.253
